Target: Concanavalin-A (Canavalia ensiformis)
Assay: ConA small-molecule binders, primary screen, artefact control for SMM control protein annotation, biochemical, small-molecule microarray, Alexa647 label, 635 nm (AID 1127);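 further: z combines 667 nm emission intensity with signal-to-noise across three replicate slides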
Conditions: ConA-A647 binding fluorescence, higher = more signal
The reader will find reported composite z-score values listed item by item below.
// keep it numeric: no unit symbol after the value

Below are worked cases with known answers.
{"columns": ["COMPOUND", "composite z-score"],
 "data": [
  ["O=C1C[C@@](C(=O)NCCN2CCOCC2)(c2ccc([N+](=O)[O-])cc2)[C@@H](c2ccc(CO)cc2I)N1C1CCCCC1", 0.416],
  ["C=C(COC)/C(=C/C[C@H](OC(C)=O)c1ccc(OCCO)cc1)c1cc(C(=O)OC)ccc1OC", 0.519],
  ["[N-]=[N+]=Nc1ccccc1[C@H]1OC(c2ccc(OCCCO)cc2)=N[C@@]1(CCS(=O)(=O)c1ccccc1)C(=O)NCCN1CCOCC1", 0.923],
  ["Cc1cc(C)c(C(O)C2C=CC3C(=O)NC(=O)C3N2Nc2ccc(Cl)cc2Cl)c(C)c1 (centres undefined)", 1.09],
  ["C=CCN1C(=O)[C@@]2(CCS(=O)(=O)c3ccccc3)N=C(c3ccc(OCCCO)cc3)O[C@H]2c2ccccc21", 1.12],
  ["CC(C)Cc1ccc(CN2CC[C@@H](NC(=O)Nc3ccccc3)C2)cc1", -0.0211],
  ["CCOc1cc(C(O)C2C=CC3C(=O)N(C)C(=O)C3N2Nc2ccccc2)ccc1O (centres undefined)", 0.947],
  ["COc1ccc([Si](C)(C)[C@@H]2[C@@H](CCO)O[C@]3(C(=O)N(Cc4ccc(N5CCCCC5=O)cc4)c4ccccc43)[C@H]2C)cc1", 1.12]
]}

Form: item COCCCNC(=O)[C@@]1(Cc2ccccc2N=[N+]=[N-])COC(c2ccc(OCCCO)cc2)=N1 ; test system Concanavalin-A (Canavalia ensiformis); composite z-score: 1.1

###

The reader will find reported z-score values listed item by item below.
Assay: basal RPMI8226 viability, no added stimulus, profiling panel, cell-based, calcein-AM fluorescence, 48 h, PK04 Diversity Set (AID 1166);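 further: cells grown under basal conditions without added stimulus; test concentration not given here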
Conditions: RPMI8226 myeloma viability, higher = more signal
// keep it numeric: no unit symbol after the value

Below are worked cases with known answers.
{"columns": ["COMPOUND", "REPORTED_VALUE"],
 "data": [
  ["COCCOC(=O)N1C(=O)[C@@]2(c3cc(C#CC4=CCCCC4)ccc31)[C@H](c1ccc(OCCO)cc1)N1[C@H](c3ccccc3)[C@H](c3ccccc3)OC(=O)[C@H]1[C@@H]2C(=O)NC[C@H](O)c1ccccc1", -2.03],
  ["CC(C)(C)OC(=O)CC[C@]1(C(=O)NCC(O)CO)N=C(c2ccc(OCCCO)cc2)O[C@H]1c1ccccc1 (some centres not stated)", 0.0887],
  ["CN(C)C(=O)[C@@]1(CCS(=O)(=O)c2ccccc2)N=C(c2ccc(OCCCO)cc2)O[C@H]1c1ccccc1", -2.01],
  ["CCC[C@@H]1C[C@@]1(CCC)[C@@H](NC(=O)OCc1ccccc1)c1ccc(-c2ccccc2)cc1", -1.43],
  ["CN(C)CCCCNC(=O)[C@@H]1C[C@@H]2C(=O)N[C@@H](Cc3ccccc3)C(=O)N2[C@@H]1c1cccc(OCCO)c1", 0.573],
  ["COC(=O)[C@@]1(Cc2ccccc2)[C@H]2c3cc(C(=O)N(C)C)n(Cc4c(CO)[nH]cc(C)c4=O)c3C[C@H]2CN1C(=O)c1ccccc1", -0.247]
]}

Now let's try a different one.
For C=C(COC)/C(=C/C[C@H](OC(=O)c1ccncc1)c1ccccc1OCCO)c1cnc2ccccc2c1 the compound record lists z-score as -0.533

###

Assay: PSAC antagonists in infected red cells, primary screen, cell-based, P. falciparum Indochina, OD700, 2 h (AID 1155);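 further: lysis reports solute entry through the parasite surface anion channel PSAC; channel blockers reduce lysis of infected cells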
Details: P. falciparum Indochina infected erythrocytes, osmotic lysis OD700; higher = more signal, called active from +8 up or from −8 down
The reader will find reported z-score values listed item by item below.
// keep it numeric: no unit symbol after the value

For C=CCC(OC(C)=O)[C@@H]1[C@@H](N(Cc2cccc3ccccc23)C(=O)Cc2ccc(OC)cc2)c2cc(OCCCO)ccc2N1C(=O)c1ccc2ccccc2n1 (some centres undefined) the compound record lists z-score as 0.786

###

Experiment: FRG1 promoter luciferase signal modulators, primary screen, FRG1 inhibition for FSHD, cell-based, C2C12 myotubes, firefly/Renilla luciferase, luminescence (AID 1084)
Conditions: higher = more signal, called active from +8 up or from −8 down
z-score below 0.2 gives f; z-score at or above it gives t.

Solved cases below.
{"columns": ["MOLECULE", "DISCRETE_LABEL"],
 "data": [
  ["CN1C(=O)C2C=CC(C(O)c3ccc(F)cc3)N(Nc3ccccc3)C2C1=O (stereo not drawn)", "f"],
  ["Cc1ccc(S[C@]2(C(=O)O)CC(=O)N(C3Cc4ccccc4C3)[C@@H]2c2ccc(CO)cc2)cc1", "f"],
  ["CC(C)(C)OC(=O)CC[C@]1(C(=O)NCC(O)CO)N=C(c2ccc(OCCCO)cc2)O[C@H]1c1ccccc1 (stereo partly drawn)", "t"],
  ["O=C(NCc1ccccc1)[C@@H]1c2ccccc2C(=O)N(Cc2ccccc2C(F)(F)F)[C@H]1c1ccc(CO)cc1", "f"],
  ["CCOC(=O)C1=C[C@@H](c2ccccc2)N(S(=O)(=O)c2ccc(C)cc2)[C@H]1c1ccccc1Cl", "f"],
  ["O=C1OCCC=C[C@H]2OC34C=CCN(Cn5nnc6ccccc65)C(=O)[C@H]3N(CCCCCCO)C(=O)[C@@H]4C12 (stereo partly drawn)", "f"]
]}

Check if z-score >= 0.2 (inclusive). Item: CC[C@H]1C2=C3C(CC[C@H]4C(OCc5ccc(F)cc5C(F)(F)F)OC[C@](C)([C@@H]34)N(C(=O)OC(C)(C)C)C2)C(COC)C1COC (stereo partly drawn)
t

Check if z-score >= 0.2 (inclusive). Item: COC1OC[C@]2(C)[C@H]3C4=C(CN2C(=O)OC(C)(C)C)[C@H](C)C(CO)C(CO)C4CC[C@@H]13 (stereo partly drawn)
t

###

Assay: small-molecule binders of probe aInhba, primary screen, biochemical, small-molecule microarray, 635/667 nm fluorescence (AID 1148);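 further: score merges 667nm spot fluorescence with signal-to-noise for antibody binding to printed compounds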
Conditions: higher = more signal
The reader will find reported composite z-score values listed item by item below.
// keep it numeric: no unit symbol after the value

For COC(=O)[C@H](Cc1ccccc1)N1CC(/C=C/C2CC2)=C[C@H]1[C@H](O)Cc1ccccc1 the compound record lists composite z-score as -0.0523

For CCCC[C@@H](O)C1=C(COc2ccccc2)C[C@H]2C(=O)N(C)C(=O)[C@H]2[C@H]1CO the compound record lists composite z-score as -0.102

For COc1ccc([Si](C)(C)[C@@H]2[C@@H](CC(=O)N3Cc4ccccc4C[C@H]3CO)O[C@]3(C(=O)N(C)c4ccccc43)[C@H]2C)cc1 the compound record lists composite z-score as 0.189

For CC(C)C[C@@H]1NC(=O)[C@@H]2C[C@H](C(=O)NCCCCCN)[C@H](c3ccc(O)cc3)N2C1=O the compound record lists composite z-score as -0.171

###

Molecular target: Fibroblast growth factor 2 (Homo sapiens)
Assay: FGF2 binders on small-molecule microarrays, primary screen, biochemical, small-molecule microarray, 635/667 nm fluorescence (AID 1133)
Details: small-molecule microarray binding, FGF2, fluorescence 635/667; higher = more signal
The reader will find reported composite z-score values listed item by item below.
// keep it numeric: no unit symbol after the value

For COc1ccc(-c2nc(-c3ccccc3)c3c(c2C)CO[Si]3(C(C)C)C(C)C)cn1 the compound record lists composite z-score as 0.639

For COc1cc2c(cc1OC)CN(C(=O)[C@@H]1[C@H]3C(=O)O[C@H](c4ccccc4)[C@H](c4ccccc4)N3[C@H](c3ccc(OCCO)cc3)[C@@]13C(=O)Nc1ccc(C#CC4(O)CCCCCC4)cc13)CC2 the compound record lists composite z-score as 1.13

For COC(=O)[C@@]1(Cc2ccc(OC)cc2)[C@H]2c3cc(C(=O)N(C)C)n(CCO)c3C[C@H]2CN1C(=O)c1ccccc1 the compound record lists composite z-score as -0.545

For O=C1NC(=O)C2C1C=CC(C(O)CCc1ccccc1)N2Nc1ccc(Cl)cc1Cl (configuration not stated) the compound record lists composite z-score as -0.83

For COc1cc2c(cc1O)C(C)N(Cc1ccc([N+](=O)[O-])o1)CC2 (configuration not stated) the compound record lists composite z-score as 0.18

For NC(=O)NCC#Cc1ccc2c(c1)[C@]1(C(=O)N2)[C@H](C(=O)O)[C@H]2C(=O)O[C@H](c3ccccc3)[C@H](c3ccccc3)N2[C@@H]1c1ccc(OCCO)cc1 the compound record lists composite z-score as 0.239

For O=C1O[C@@H](c2ccccc2)[C@@H](c2ccccc2)N2[C@@H](c3ccc(O)cc3)[C@]3(C(=O)Nc4ccc(C#CC5=CCCCC5)cc43)[C@@H](C(=O)NC[C@H](O)c3ccccc3)[C@H]12 the compound record lists composite z-score as 1.69

Where these numbers come from: PubChem BioAssay
